target: T1, cynomolgus HER3 antigen (cynomolgus monkey, UniProt G7PIG5 20-643); test: SPR (ProteOn XPR36), IgG captured by anti-human Fc, soluble monovalent antigen, 1:1 fit
T1 construct: In-house antigen; also called cynomolgus antigen
T1 sequence (G7PIG5 entry or part of it): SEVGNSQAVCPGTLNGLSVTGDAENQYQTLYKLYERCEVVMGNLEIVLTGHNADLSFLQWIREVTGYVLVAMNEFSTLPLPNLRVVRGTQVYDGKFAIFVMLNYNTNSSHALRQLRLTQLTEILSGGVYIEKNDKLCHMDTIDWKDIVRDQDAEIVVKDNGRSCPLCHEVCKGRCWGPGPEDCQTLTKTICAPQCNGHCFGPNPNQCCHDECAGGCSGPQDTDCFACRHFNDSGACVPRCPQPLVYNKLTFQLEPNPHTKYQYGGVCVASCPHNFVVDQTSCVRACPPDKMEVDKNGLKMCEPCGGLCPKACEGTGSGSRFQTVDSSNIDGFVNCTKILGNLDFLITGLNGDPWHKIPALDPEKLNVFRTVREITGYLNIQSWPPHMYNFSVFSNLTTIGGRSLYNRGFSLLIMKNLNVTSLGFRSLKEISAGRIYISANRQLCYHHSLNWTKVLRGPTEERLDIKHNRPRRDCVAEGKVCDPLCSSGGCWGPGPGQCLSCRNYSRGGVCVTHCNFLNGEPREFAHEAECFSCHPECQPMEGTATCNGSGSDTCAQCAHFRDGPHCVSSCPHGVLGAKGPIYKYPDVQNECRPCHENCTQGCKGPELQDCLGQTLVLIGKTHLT
readout-kind: kon (M⁻¹ s⁻¹)
Note: unit M⁻¹ s⁻¹ is implicit; provide only the numeric part.

Recorded kon, per entry:
{"columns": ["binder", "readout-kind", "measured-value"],
 "data": [
  ["chimeric anti-HER3 antibody 5082 (antibody, V domains shown, light chain entry is full length) VH: EVQLKESGPGLVKPSQSLSLTCSVTGYSITSAYYWNWIRQFPGNKVEWMGYIGYDGRNTYNPSLKNRISITRDTSKNQFFLKLNSLTTEDTATYYCSREGDYGYSDYWGQGTTLTVS VL: DIVMTQATSSLSASLGDRVTVSCRASQDINNYLNWYQQKPDGTVKLLIYYTSRLQSGVPSRFSGSGSGIDYSLTISNLEQEDFVTYFCQQSETLPWTFGGGTKLELKR", "kon", "1.7e+06"],
  ["humanized anti-HER3 antibody 10810 (antibody, V domains shown) VH: QVQLQESGPGLVKPSQTLSLTCTVSGYSITSGFYWTWIRQHPGNGLEWIGFISYSGSNNYNPSLKNRVTISVDTSKNQFSLKLSSVTAADTATYYCARGGGYYGNLFDYWGQGTLVTVSS VL: DIQMTQSPSSLSASVGDRVTITCRPSQDISNYVNWFQQKPGKAPKLLIFHTSRLHSGVPSRFSGSGSGTDFTLTISSLQPEDIATYYCQQGITLPWTFGQGTKVEIK", "kon", 470000],
  ["humanized anti-HER3 antibody 11052 (antibody, V domains shown) VH: QVQLQESGPGLVKPSQTLSLTCTVSGYSITSAYYWNWIRQFPGKGVEWMGYIGYSGRNTYNPSLKNRVTISRDTSKNQFSLKLSSVTAADTAVYYCSREGDYGYSDYWGQGTLVTVSS VL: DIQMTQSPSSLSASVGDRVTVTCRASQDINNYLNWYQQKPGKAVKLLIYYTSRLQSGVPSRFSGSGSGTDYTLTISSLQPEDFATYFCQQSETLPWTFGQGTKLEIK", "kon", "1.3e+06"],
  ["chimeric anti-HER3 antibody 5038 (antibody, V domains shown, light chain entry is full length) VH: EVKLVESGPGLVKPSQSLSLTCSVTGYSITSGFYWTWIRQFPGNKLEWMGFISYDGSNNYNPSLKNRISITRDTSKNQFFLKLNSVTTEDTATYYCARGGGYYGNLFDYWGQGTTLTVS VL: DIVMTQTTSSLSASLGDRVTISCRPSQDISNYVNWFQQKPGGTVKLLIFHTSRLHSGVPSRFSGSGSGTDYSLTISTLEQEDIAIYFCQQGITLPWTFGGGTKLEIKR", "kon", 460000]
]}

Proceeding to the next binder to report its kon.
Query: // returns reported kon for input humanized anti-HER3 antibody 11006 (antibody, V domains shown) VH: QVQLQESGPGLVKPSQTLSLTCTVSGYSITSAYYWNWIRQHPGKGVEWMGYIGYSGRNTYNPSLKNRVTISRDTSKNQFSLKLSSVTAADTAVYYCSREGDYGYSDYWGQGTLVTVSS VL: DIQMTQSPSSLSASVGDRVTVTCRASQDTNNYLNWYQQKPGKAVKLLIYYTSRLQSGVPSRFSGSGSGTDFTLTISSLQPEDFATYFCQQSETLPWTFGQGTKVEIK
Reply: 1.5e+06
